System: Septoria tritici
Experiment: In vivo preventive test on Septoria tritici (leaf spot on wheat)
Conditions: 500 ppm; wheat plants sprayed 24 hours before contamination; grading 21 to 28 days after contamination vs control plants
property: % of efficacy (protection)
Answers without a unit are incomplete; give the number and then its unit.

Worked examples follow.
molecule	% of efficacy (protection)
CC1(C)OCC(CNC(=O)C2(C)CC(c3ccc4ncc(I)cc4c3)=NO2)O1 (centres unmarked)	97%
C#Cc1cnc2ccc(C3=NOC(OC)(C(=O)NCC4COC(C)(C)O4)C3)cc2c1 (centres unmarked)	97%
Cn1cc(CNC(=O)C2(C)CC(c3ccc4ncc(Br)cc4c3)=NO2)cn1 (centres unmarked)	93%
COC1(C(=O)N(C)C)CC(c2ccc3ncc(Br)cc3c2)=NO1 (centres unmarked)	97%
COC1(C(=O)NC2CC2)CC(c2ccc3ncc(Br)cc3c2)=NO1 (centres unmarked)	94%

Q: % of efficacy (protection) of C#Cc1cnc2c(Cl)cc(C3=NOC(C)(C(=O)NCC4COC(C)(C)O4)C3)cc2c1 (centres unmarked) on Septoria tritici?
Result: 100%

Q: Now consider C#Cc1cnc2ccc(C3=NOC(C=C)(C(=O)NC(C)C)C3)cc2c1 (centres unmarked) and answer again.
Result: 100%

Q: Now consider CC#Cc1cnc2ccc(C3=NOC(C)(C(=O)NCc4cn(CC)nc4C)C3)cc2c1 (racemic) and answer again.
Result: 97%
